tested on: SF-539 CNS; experiment: NCI-60 one-dose screen, 48 h (100 = growth as untreated, 0 = no growth, -100 = all killed); settings: 10 µM unless noted
This is part of a sample that, as a whole, favours compounds with a hit. Of some 83,000 tested, about 20% had one in any assay. Activity calls are given as the source filed them. How the source made its calls: active means growth percent below 10; inactive means the rest.
Items are presented alongside their recorded growth.

Answered examples (8):
[[record]]
compound = "COc1cc(CNC(=O)c2ccsc2Nc2ccnc(C(F)(F)F)c2)ccc1O"
target_of_assay = "SF-539 CNS"
value_type = "growth"
observed_value = "102% (inactive)"

[[record]]
compound = "O=C(c1ccccc1)N(CCc1ccc(Cl)cc1)C(=S)N(C(=O)c1ccccc1)c1ccccc1"
target_of_assay = "SF-539 CNS"
value_type = "growth"
observed_value = "106% (inactive)"

[[record]]
compound = "COc1ccc(Cn2c(Br)c3c(c2-c2cc(OC)c(OC)c(OC)c2)CCc2sc(NC(C)=O)nc2-3)cc1"
target_of_assay = "SF-539 CNS"
value_type = "growth"
observed_value = "23.1% (inactive)"

[[record]]
compound = "COc1cc2nc(NC3CCCC3)nc(NC3CCN(C(C)C)CC3)c2cc1OC"
target_of_assay = "SF-539 CNS"
value_type = "growth"
observed_value = "59.6% (inactive)"

[[record]]
compound = "CCCc1c(C)c2sc(=O)[nH]c2[nH]c1=O"
target_of_assay = "SF-539 CNS"
value_type = "growth"
observed_value = "96.7% (inactive)"

[[record]]
compound = "CCOC(=O)c1c(Cl)c2c(n1Cc1ccccc1)-c1oncc1CCC2"
target_of_assay = "SF-539 CNS"
value_type = "growth"
observed_value = "74% (inactive)"

[[record]]
compound = "Cc1[nH]c2ccccc2c(=O)c1CC=C(Cl)Cl"
target_of_assay = "SF-539 CNS"
value_type = "growth"
observed_value = "58% (inactive)"

[[record]]
compound = "Cc1ccc2[nH]c(=O)cc(-n3nncc3Cn3c4ccccc4c4ccccc43)c2c1"
target_of_assay = "SF-539 CNS"
value_type = "growth"
observed_value = "94% (inactive)"


Bench note: what growth did CCN1C(=O)N(CC)C2C1NN=c1s/c(=C3\C(=O)N(CC(C)(C)C)c4ccccc43)c(=O)n12 (stereo unspecified) show?
-17.9% (active)

Bench note: what growth did O=C(Nc1ccc(Cl)cc1)N1CCN(c2ccc3nncn3n2)CC1 show?
-86.7% (active)

Bench note: what growth did COc1ccc(C2C3=C(COC3=O)N(CCO)c3cc4c(cc32)CCC4)cc1 (stereo unspecified) show?
57.2% (inactive)

Bench note: what growth did Oc1c(C(Nc2ccccn2)c2cccc(Oc3ccccc3)c2)ccc2cccnc12 (stereo unspecified) show?
-93.1% (active)

###

tested on: EKVX NSCLC; assay: NCI-60 one-dose screen, 48 h (100 = growth as untreated, 0 = no growth, -100 = all killed); settings: 10 µM unless noted
Compounds without any hit were thinned out: in the full panel of roughly 83,000, 20% have a hit.
# thresholds on growth define classes: low value: < 50%; medium value: ≥ 50% and < 90%; high value: ≥ 90%

[[record]]
molecule = "O=C(Cn1cc(COc2ncnc3c2cnn3-c2ccccc2)nn1)Nc1ccccn1"
cat = "medium value"

[[record]]
molecule = "Cc1cccc2c(=O)c3c(sc12)c(NCCN)nc1ccccc13"
cat = "low value"

[[record]]
molecule = "O=c1oc2ccc(F)cc2c(=O)n1-c1ccc(Cl)cc1F"
cat = "low value"

[[record]]
molecule = "COc1cc(CNC(=O)Cc2ccccc2)ccc1OCc1cn(-c2ccc(F)cc2)nn1"
cat = "high value"

[[record]]
molecule = "O=C(CN1C=NC2C(N3CCOCC3)=NC=NC21)c1cccc2ccccc12 (stereo unspecified)"
cat = "medium value"

[[record]]
molecule = "O=S1(=O)N(Cc2ccccc2)[C@@H](Cc2ccccc2)[C@H](O)[C@H](O)[C@H](Cc2ccccc2)N1Cc1ccccc1"
cat = "low value"


Hey, which category is COC(=O)/C(CCC=C(C)C)=C1\[C@@H](OC(C)=O)C[C@@]2(C)[C@H]1C[C@@H](O)[C@H]1[C@@]3(C)CC[C@H](NC(=O)c4cnccn4)[C@@H](C)[C@@H]3CC[C@@]12C in, do you know?
high value

Hey, which category is N#C/C(=C\c1c(-c2ccccc2)[nH]c2ccccc12)S(=O)(=O)c1ccccc1 in, do you know?
medium value

Hey, which category is O=C(O)c1cn(C2CC2)c2cc(N3CCN(C(=O)C[n+]4ccccc4)CC3)c(F)cc2c1=O in, do you know?
high value

Hey, which category is CCOC(=O)c1sc(-c2ccc(OS(=O)(=O)c3ccc(Br)s3)c(C=O)c2)nc1C in, do you know?
medium value

Hey, which category is O=C(Nc1ccc(I)cc1F)c1cc(Br)ccc1O in, do you know?
low value

Hey, which category is O=C(Nc1ccc(Br)cc1F)c1cc(F)ccc1O in, do you know?
low value

Hey, which category is COC(=O)/C(CCC=C(C)C)=C1\[C@@H](OC(C)=O)C[C@@]2(C)[C@H]1C[C@@H](O)[C@H]1[C@@]3(C)CC[C@H](NCCCNCCCCNCCCN)[C@@H](C)[C@@H]3CC[C@@]12C in, do you know?
medium value

Hey, which category is CC(=O)c1ccc2oc(=O)n(Cc3ccc(C#N)cc3)c(=O)c2c1 in, do you know?
high value

Hey, which category is S=C1CCCC(=S)N1 in, do you know?
high value

Hey, which category is COC(=O)/C(CCC=C(C)C)=C1\[C@@H](OC(C)=O)C[C@@]2(C)[C@H]1C[C@@H](O)[C@H]1[C@@]3(C)CC[C@H](NCCO)[C@@H](C)[C@@H]3CC[C@@]12C in, do you know?
high value
